# Assayed System: T1, biotinylated GITR (human, UniProt Q9Y5U5 26-161, limits assumed, biotinylated (sites not given))
# T1 construct: also called GITR-bio; Biotin-GITR
# T1 sequence: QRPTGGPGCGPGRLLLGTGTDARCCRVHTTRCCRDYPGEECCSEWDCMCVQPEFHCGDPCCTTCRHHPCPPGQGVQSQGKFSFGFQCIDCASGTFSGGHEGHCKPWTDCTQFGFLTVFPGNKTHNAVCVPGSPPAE
# Procedure Summary: BLI (Octet), biotin-GITR on streptavidin tips, antibody supernatant
# Protocol: Several hundred germlined antibodies were selected based on binding kinetics as determined by Octet measurements (Octet RED 96 system; ForteBio™ Inc., Menlo Park, Calif.). […] Dissociation of the antibody-antigen complex was measured in wells containing the Octet buffer alone for 5 minutes. […] Affinity, Kₒₙ and Koff were determined with Octet evaluation software v6.3 using a 1:1 binding model with local full fitting.
Entries and their pKd
Lab note — pKd values are minus log10 of concentrations in M.

For orientation, consider the following solved cases.
germline variant antibody 68 (H1917B01 / K1917B01) (antibody, V domains shown, IGHG1/IGKC expression vectors; measured from CHO culture supernatant; also called Antibody ID 68) VH: QVQLVQSGTEVKKPGASVKVSCKGSGYTFTGYAMYWVRQAPGQGLEWIGLIRTYSGGVTYNQKFRGRVTMTVDTSISTAYMELSRLRSDDTAVYYCAKSGTVRGFAYWGQGTLVTVSS VL: DIVMTQSPDSLAVSLGERATINCKSSQSLLNSGNQKNYLTWYQQKPGQPPKMLIYWASTRESGVPDRFTGSGSGTDFTLTISSLQAEDVAVYYCQNDYSYPYTFGQGTKLEIK: 8.81
germline variant antibody 80 (H1917D07 / K1917D07) (antibody, V domains shown, IGHG1/IGKC expression vectors; measured from CHO culture supernatant; also called Antibody ID 80) VH: QVQLVQSGTEVKKPGASVKVSCKASGYTFTEYAMHWVRQAPGQGMEWMGLIRTFSGDVSYNQKFRGRVTMTVDTSISTAYMELSRLRSDDTAVYYCAKSGTVRGFAYWGQGTLVTVSS VL: DIVMTQSPDSLAVSLGERATINCKSSQSLLNSSNQKNYLTWYQQKPGQPPKLLIYWASTRESGVPDRFTGSGSGTDFTLTISSLQAEDVAVYYCQNDYSFPYTFGQGTKLEIK: 9.16
germline variant antibody 4 (H1916A05 / K1916A05) (antibody, V domains shown, IGHG1/IGKC expression vectors; measured from CHO culture supernatant; also called Antibody ID 4) VH: QVQLVQSGAEVKKPGASVKVSCKASGYTFTEYAMYWVRQAPGQSLEWMGLIRTFSGDVSYNQKFQDRVTMTVDKSISTAYMELSRLRSDDTAVYYCAKSGTVRGFAYWGQGTLVTVSS VL: DIVMTQSPDSLAVSLGERATINCKSSQSLLNSSNQKNYLSWYHQKPGQPPKLLIYWASTRESGVPDRFTGSGSGTDFTLTISSVQAEDVAVYYCQNDYSYPYTFGQGTKLEIK: 8.84

Problem: Specify reported pKd for the binder shown: germline variant antibody 61 (H1917A02 / K1917A02) (antibody, V domains shown, IGHG1/IGKC expression vectors; measured from CHO culture supernatant; also called Antibody ID 61) VH: QVQLVQSGTEVKKPGASVKVSCKASGYTFTEYAMHWVRQAPGQGLEWMGLIRTYSGGVSYNQKFQERVTMTVDKSISTAYMELSRLRSDDTAVYYCAKSGTVRGFAYWGQGTLVTVSS VL: DIVMTQSPDSLAVSLGERATINCKSSQSLLNSGNQKNYLSWYQQKPGQPPKLLIYWASTRESGVPDRFSGSGSGTDFTLTISSVQAEDVAVYYCQNDYSFPYTFGQGTKLEIK
Result: 8.74

Problem: Input germline variant antibody 10 (H1916A11 / K1916A11) (antibody, V domains shown, IGHG1/IGKC expression vectors; measured from CHO culture supernatant; also called Antibody ID 10) VH: QVQLVQSGAEVKKPGASVKVSCKASGYTFTEYAMYWVRQAPGQGLEWMGLIRTYSGGVSYNQKFRGRVTMTVDKSISTAYMELSRLRSDDTAVYYCAKSGTVRGFAYWGQGTLVTVSS VL: DIVMTQSPDSLAVSLGERATINCKSSQSLLNSSNQKNYLSWYQQKPGQPPKLLIYWASTRESGVPDRFSGSGSGTDFTLTISSVQAEDVAVYHCQNDYSYPYTFGQGTKLEIK , output reported pKd.
Result: 9.04
